The reported numbers originate from ChEMBL document CHEMBL4513216.

Assay Notes: Toxicity liver stage against HepG2, at 10uM
Assay type: cell-based
Design: test concentration 10 uM, cell line HepG2-A16-CD81EGFP
Applied Conditions: human, HepG2-A16-CD81EGFP cells; read-out: INHIBITION
Measured Attribute: cytotoxicity at 10 µM (%)
The answer is to be given in %; state only the numeric part.

Use these answered entries as a reference point.
COCCOCC(=O)Nc1cccc(CN(C)C(C)=O)c1 ... -126
Cc1ccccc1CSCCn1nc2ccccn2c1=O ... 2.57
C[C@@H]1CN(C2CCN(Cc3nn(C)c4cccc(Cl)c34)CC2)C[C@H](C)O1 ... -6.48
CO[C@H]1CCN(Cc2c(C)noc2C)[C@@H]2CN(Cc3cccnc3)C[C@H]12 ... 5.55
N#CCC(=O)NCc1nnc2n1CCN(Cc1cccs1)C2 ... -136

Moving on to the next molecule.
cytotoxicity at 10 µM lookup needed for COc1cc(CNC(=O)Nc2nncs2)ccc1O , thanks.
-6.29

###

Assay Notes: Toxicity liver stage against HepG2, at 10uM
Type: cell-based
Parameters: test concentration 10 uM, cell line HepG2-A16-CD81EGFP
Applied Conditions: human, HepG2-A16-CD81EGFP cells; read-out: INHIBITION
Measured Attribute: cytotoxicity at 10 µM (%)
Give a bare numeral; the unit % is implied.

CNC(=O)c1nc(CN2CCOC(C(F)(F)F)C2)no1 (centres undefined) ... -2.08
CC(C)S(=O)(=O)N1C[C@H]2OC(=O)N(CCc3cccc(Cl)c3)[C@H]2C1 ... 0.642
Cc1nc(-c2nc(C(=O)N3CCOCC3)c3ccccn23)cn1C(C)C ... 1.53
Cc1noc(C)c1CN(C)C(=O)NC1CCCN(S(C)(=O)=O)C1 (centres undefined) ... -13.9
O=S(=O)(CC1CCCN1S(=O)(=O)c1cccnc1)c1ccccc1 (centres undefined) ... -4.31

What value of cytotoxicity at 10 µM has been reported for the following compound? O=C(O)c1ccc(F)c(S(=O)(=O)Nc2ccc(-n3cccn3)c(Cl)c2)c1
2.24

Please give the result for O=C(NCCCN1CCc2ccccc2C1)c1cccnc1O too.
-3.49

What about this compound? Cc1ccc(OCCN(C)Cc2nc3c(cnn3C)c(=O)[nH]2)cc1
-3.44

Field entry: NCc1cnc(Nc2ccccc2)nc1
8.55

Next record, please: Cc1ncsc1C(=O)N(C)Cc1ccccc1
-6.92

Subsequent entry: CCc1nc(CN(C)Cc2nc(-c3ccccc3Cl)oc2C)no1
-8.83

Continue with CCN(CC)S(=O)(=O)NCc1ccc(-c2ccc(C(N)=O)c(C)n2)cc1
2.77

###

Assay Notes: Toxicity liver stage against HepG2, at 10uM
Assay type: cell-based
Set-up: test concentration 10 uM, cell line HepG2-A16-CD81EGFP
Applied Conditions: human, HepG2-A16-CD81EGFP cells; read-out: INHIBITION
Measured Attribute: cytotoxicity at 10 µM (%)
Provide only the numeric value, understood in %.

Sample answers from the record:
CCOc1ccc(C(=O)N2CCCS2(=O)=O)cc1OC ... -7.42
O=C(C1CCCC1)N1CCOc2cccc(F)c21 ... -2.54
COc1ccc(OCCN2CCC(N3CCNC3=O)CC2)cc1 ... 29.5
O=C(NCCc1cccc(Cl)c1)C1CCOCC1 ... -8.47
O=C(c1cscn1)N1CCn2cnc(COCC3CC3)c2C1 ... -4.6

Reported cytotoxicity at 10 µM for O=C(NCCCN1CCOCC1)c1cc(-c2ccc3c(c2)CCO3)n[nH]1 : what is it?
-3.73

Same lookup for CC(=O)N1CC(C(=O)NCCc2ncc(C)s2)C1 , please.
-1.33

Next record, please: O=C(Nc1nncs1)c1ccc(-n2cnnn2)cc1
5.25

###

Assay Notes: Toxicity liver stage against HepG2, at 10uM
Format: cell-based
Design: test concentration 10 uM, cell line HepG2-A16-CD81EGFP
Applied Conditions: human, HepG2-A16-CD81EGFP cells; read-out: INHIBITION
Measured Attribute: cytotoxicity at 10 µM (%)
Express your answer in %, writing the number without its unit.

Look over these answered cases.
COc1cc(N2C[C@H]3OCC[C@H]3[C@H](C(=O)NC3CC3)C2)ncn1 ... -8.83
NC(=O)N1C[C@H](NC(=O)c2cscn2)[C@@H]2OCCC[C@@H]21 ... -99
Cc1cc(C)n(CC2CCCN2C(=O)Cc2csc(C)n2)n1 (stereo not given) ... 9.3
CCc1nnc2n1CCN(C(C(=O)NC1CC1)c1ccccc1)C2 (stereo not given) ... -7.07

We now examine a further molecule.
Given O=C1N(Cc2cccc(F)c2F)CCCC1(O)CNCc1ccccc1 (stereo not given) , state its recorded cytotoxicity at 10 µM.
-9.45

###

Assay Notes: Toxicity liver stage against HepG2, at 10uM
Format: cell-based
Set-up: test concentration 10 uM, cell line HepG2-A16-CD81EGFP
Applied Conditions: human, HepG2-A16-CD81EGFP cells; read-out: INHIBITION
Measured Attribute: cytotoxicity at 10 µM (%)
# output: bare number, implied unit %

Example entries begin here.
CN(C)Cc1csc(-c2nccn2Cc2ccc(C(=O)O)cc2)c1 ... -1.3
Cc1cc(C)c2nc(CNCCNS(C)(=O)=O)cc(O)c2c1 ... 0.145
Cc1nc(C2CCCN2CCc2ccccn2)no1 (configuration not stated) ... 7.28

Which cytotoxicity at 10 µM value is on record for NC(=O)c1ccc(C2CCCNC2)nc1 (configuration not stated) ?
-15.1

// query: COCCn1ccc2cc(C(=O)NC3CCOC(C)(C)C3)ccc21 (configuration not stated)
-0.508

# iterate: CCC(=O)N1CCC(c2cc(Nc3ncccn3)nc(C)n2)C1 (configuration not stated)
-24

Next record, please: Cc1ccccc1-c1cc(CC2(C(=O)O)CCOCC2)on1
-14.1

Entry Cc1cc(F)cc(S(=O)(=O)NCCCN2CCC(O)CC2)c1 please
-20.1

One more compound: CNc1cccc(C2CN(C(=O)c3c[nH]cn3)CCO2)n1 (configuration not stated)
6

Moving on to CC(C1CCN(Cc2c(Cl)cncc2Cl)CC1)N1CCN(C)CC1 (configuration not stated)
-12.2

Entry CN1CCOC(CNCc2nc(-c3ccco3)no2)C1 (configuration not stated) please
3.54

Ok, now O=c1c(NCCNCCO)c(N2CCN(c3ccccc3)CC2)c1=O
-7.76

###

Assay Notes: Toxicity liver stage against HepG2, at 10uM
Format: cell-based
Design: test concentration 10 uM, cell line HepG2-A16-CD81EGFP
Applied Conditions: human, HepG2-A16-CD81EGFP cells; read-out: INHIBITION
// reported cytotoxicity at 10 µM per item
The reply should be a number in %, with the unit left off.

CC(CN1CCOCC1)NC(=O)NCc1ccoc1 (centres undefined) ... -5.52
COCCNC(=O)c1ccc(NCc2c(C)noc2C)cc1Cl ... 0.678
Cc1nc(C)n(C2CCCN(C(=O)c3ccc(OC(C)C)nc3)C2)n1 (centres undefined) ... -5.92
Cc1csc2ncc(-c3ccnc(NC4CCOCC4)n3)c(=O)n12 ... -4.36
Cc1ccccc1CCCN(Cc1ccccn1)S(C)(=O)=O ... 9.53

Quick one: cytotoxicity at 10 µM for Cc1ncsc1C(=O)Nc1ccccn1 ?
11.3

Then this molecule: Cc1cc(=O)c2cc(F)ccc2n1CC(=O)O
0.753

Quick one: CC(NC(=O)CN1CCCC1=O)c1ccc(Cl)s1 (centres undefined)
-6.45

Okay, and CC(C)C(=O)NCC(=O)N1CCC2(CC1)c1ccccc1[C@@H](N)[C@@H]2O ?
0.174

Now consider O=C(c1cnoc1)N1CCC[C@]2(C[C@@H](OCc3ccccn3)CO2)C1 .
-9.47

Moving on to COC(=O)CSCc1nc(-c2ccc(Cl)cc2)no1
3.77

Moving on to the next molecule: CCNC(=O)NCc1cnn(-c2ccc(F)cc2F)c1
-6.52

Likewise for Cc1cc(C(=O)N2CCCC(c3nccn3Cc3cscn3)C2)on1 (centres undefined) ?
-1.32

###

Assay Notes: Toxicity liver stage against HepG2, at 10uM
Assay type: cell-based
Set-up: test concentration 10 uM, cell line HepG2-A16-CD81EGFP
Applied Conditions: human, HepG2-A16-CD81EGFP cells; read-out: INHIBITION
Measured Attribute: cytotoxicity at 10 µM (%)
Please respond with the number in % and leave the unit unwritten.

CC(=O)N1CCN(S(=O)(=O)c2ccc(C)c(F)c2)CC1 ... -9.42
CN1CCN(C2CCN(CCOc3cccc(Cl)c3)CC2)C1=O ... -2.83
Cc1nc2cc(-c3nccn3C)nn2c(N2CCCC(O)C2)c1C (centres undefined) ... 2.92
Cc1cc(Cn2cncc(Br)c2=O)on1 ... 15.2
OC1(CN2CCC(Cc3ncccn3)CC2)CCOCC1 ... 16.6

Can you share its cytotoxicity at 10 µM? I mean this molecule: COc1ccc(OCCN2CCOCS2(=O)=O)cc1
2.6
